Counter-ions that a name gives are not always drawn.
MEASURE: melting point

For CCN1CCC(OC)(c2ccc(F)c(F)c2)C1 (stereo not shown) (as salt: oxalic acid salt) , write its melting point.
135 to 136 °C

Consider the compound COC1(c2cccc(F)c2F)CCNC1 (single isomer, unassigned; (+)) (as salt: oxalic acid salt) . State its measured melting point.
182 to 184 °C

Report measured melting point; entry is CCN1CCC(OC)(c2cccc(Cl)c2F)C1 (single isomer, unassigned; (+)) (as salt: fumaric acid salt)
131 to 133 °C

Specify melting point for CCN1CCC(OC)(c2cccc(F)c2F)C1 (single isomer, unassigned; (-)) (as salt: fumaric acid salt) [Example 8] and stop.
105 to 107 °C
